The following compounds were reported with pKi values on Beta-secretase 1 (Homo sapiens) in different studies.
Just the number, please; pKi means minus log10 of the concentration in mol/L.

Answered cases to consult:
CN1C(=N)N[C@](C)(c2cc(NC(=S)C(F)F)ccc2F)CS1(=O)=O ... 7.08
Cc1cc(C(=O)Nc2ccc(F)c([C@@]3(C)N=C(N)[C@](C)(F)CC3(F)F)c2)on1 ... 5.09
Cc1csc(C(=O)Nc2ccc(F)c([C@]34COC[C@@]3(F)C[C@@](C)(F)C(N)=N4)c2)n1 ... 7.64
NC1=N[C@](CF)(c2cc(NC(=O)c3ccn(C(F)F)n3)ccc2F)C(F)(F)CC1 ... 7.60
C#CCOc1cnc(C(=O)Nc2ccc(F)c([C@]3(C)CN(C)S(=O)(=O)C(C)(C)C(=N)N3)c2)cn1 ... 8.64
CC1(C)C(=N)N[C@@]2(CCCc3ccc(NC(=O)c4ccc(OCF)cn4)cc32)CS1(=O)=O ... 7.74

Please provide the recorded pKi for `CN1C(=N)N[C@](C)(c2sc(-c3cccc(-c4nnco4)c3)cc2Cl)CS1(=O)=O` , tested on Beta-secretase 1 (Homo sapiens).
8.80

Please provide the recorded pKi for `CC1(C)C(=N)N[C@@]2(CCCc3ccc(NC(=O)c4ccc(F)cn4)cc32)CS1(=O)=O` , tested on Beta-secretase 1 (Homo sapiens).
7.26

Please provide the recorded pKi for `CNC(=O)N1CC2(C1)C(=N)N[C@](C)(c1cc(NC(=O)c3ccc(OC)cn3)ccc1F)CS2(=O)=O` , tested on Beta-secretase 1 (Homo sapiens).
8.14
